Test: PK Phase (Group 2): plasma concentrations and pharmacokinetics of Compound 18 and its metabolite Compound 4 after once daily ocular instillation of Compound 18 nanosuspension for 7 days
Type: in vivo, New Zealand white rabbits
Conditions: male, New Zealand white, rabbit, plasma, other: ocular instillation (eye drop), 2 mg/day, 0.5 h; animal 207664; read-out: Day 1 Compound 18 Plasma Concentration
recorded_endpoint: concentration at 0.5 h (ng/mL)
Just the number in ng/mL, nothing appended.

Prompt: Give concentration at 0.5 h for the following compound: CCCc1nn(C)c2c(=O)[nH]c(-c3cc(S(=O)(=O)N4CC(CCCO[N+](=O)[O-])C4)ccc3OCC)nc12 [Compound 18]
Response: 0.0863

Where do these numbers come from? They come from patent US20220153746A1.
